Values from patent US20230233569A1

Target: KRAS G12S (Homo sapiens, UniProt P01116+P62937, G12S)
Sequence (P01116 1-169 isoform P01116-2 G12S limits assumed): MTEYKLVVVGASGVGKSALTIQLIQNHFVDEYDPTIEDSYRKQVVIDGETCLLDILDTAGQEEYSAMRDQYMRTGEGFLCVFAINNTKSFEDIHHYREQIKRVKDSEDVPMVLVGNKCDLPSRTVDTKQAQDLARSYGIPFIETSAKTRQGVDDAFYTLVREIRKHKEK
Sequence (P62937 whole entry): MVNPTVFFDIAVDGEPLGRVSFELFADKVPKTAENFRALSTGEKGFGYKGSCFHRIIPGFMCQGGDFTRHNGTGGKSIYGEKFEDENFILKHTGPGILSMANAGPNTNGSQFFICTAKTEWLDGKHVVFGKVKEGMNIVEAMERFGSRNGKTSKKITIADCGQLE
Experiment: Disruption of BRAF RBD interaction with Ras (FRET / MOA assay, with Cyclophilin A)
Format: biochemical
Details: read-out: KRAS G12S FRET data, IC50
Collected IC50 values appear next to each entry.

Example results:
compound="CCn1c(-c2cccnc2[C@H](C)OC)c2c3cc(ccc31)-c1csc(n1)C[C@H](NC(=O)[C@H](C(C)C)N(C)C(=O)N1CC3(CCCO3)C1)C(=O)N1CCC[C@H](N1)C(=O)OCC(C)(C)C2 (atropisomer, axis not shown)" assay_readout=IC50 readout_value="100 to 1000 nM"
compound=CCn1c(-c2cnccc2COC)c2c3cc(ccc31)-c1cc(O)cc(c1)C[C@H](NC(=O)[C@H](C(C)C)N1COCC1=O)C(=O)N1CCC[C@H](N1)C(=O)OCC(C)(C)C2 assay_readout=IC50 readout_value="100 to 1000 nM"
compound="CCn1c(-c2cc(C3CCN(C)CC3)cnc2[C@H](C)OC)c2c3cc(ccc31)-c1cc(O)cc(c1)C[C@H](NC(=O)[C@H](C(C)C)N(C)C(=O)[C@@H]1OCC[C@@H]1c1ccccc1)C(=O)N1CCC[C@H](N1)C(=O)OCC(C)(C)C2 (atropisomer, axis not shown)" assay_readout=IC50 readout_value="< 10 nM"

We now examine a further compound.
q: Notebook entry, KRAS G12S (Homo sapiens, UniProt P01116+P62937, G12S) assay: IC50 of CCn1c(-c2cccnc2[C@H](C)OC)c2c3cc(ccc31)-c1cccc(c1)C[C@H](NC(=O)[C@H](C(C)C)N1CC[C@]3(CCN(C(=O)C#C[C@]4(N(C)C)CCOC4)C3)C1=O)C(=O)N1CCC[C@H](N1)C(=O)OCC(C)(C)C2 = ?
a: 1000 to 10000 nM
